Cited source: ChEMBL document CHEMBL5576159

Listed next: entries and their corresponding CC50 at 48 h.
# method_description: Cytotoxicity against African green monkey Vero cells infected with ZIKV MR766 incubated for 48 hrs by immunofluorescence analysis
# protocol_conditions: chlorocebus sabaeus, Vero cells infected with ZIKV PRVABC59

Sample answers from the record:
c1ccc(-c2nc(-c3ccc(NCc4cccnc4)cc3)c[nH]2)cc1 = 94.1 µM
COc1ccccc1-c1cc(-c2ccc(NCc3cccnc3)cc2)no1 = > 100 µM
FC(F)(F)Oc1ccc(-c2cc(-c3ccc(NCc4cccnc4)cc3)no2)nc1 = > 100 µM
Fc1ccc(-c2cc(-c3ccc(NCc4cccnc4)cc3)no2)cc1 = > 100 µM
c1ccc(-c2nnc(-c3ccc(NCc4cccnc4)cc3)o2)cc1 = > 100 µM

Entry `c1cncc(CNc2ccc(-c3cc(-c4cncnc4)on3)cc2)c1` needs its CC50 at 48 h filled in; supply it.
> 100 µM

Entry `Cn1cc(-c2ccc(NCc3cccnc3)cc2)nc1-c1ccccc1` needs its CC50 at 48 h filled in; supply it.
> 100 µM

Entry `FC(F)(F)c1ccc(-c2cc(-c3ccc(NCc4cccnc4)cc3)no2)cc1` needs its CC50 at 48 h filled in; supply it.
> 100 µM

Entry `c1ccc(-c2noc(-c3ccc(NCc4cccnc4)cc3)n2)cc1` needs its CC50 at 48 h filled in; supply it.
61.4 µM

Entry `c1ccc(-c2cnc(-c3ccc(NCc4cccnc4)cc3)o2)cc1` needs its CC50 at 48 h filled in; supply it.
12.9 µM

Entry `N#Cc1ccc(-c2cc(-c3ccc(NCc4cccnc4)cc3)no2)cc1` needs its CC50 at 48 h filled in; supply it.
> 100 µM

Entry `FC(F)(F)c1cc(-c2cc(-c3ccc(NCc4cccnc4)cc3)no2)ccn1` needs its CC50 at 48 h filled in; supply it.
> 100 µM
